- Tgt: Poly [ADP-ribose] polymerase 1 (Homo sapiens, UniProt P09874)
- Sequence (P09874 whole entry): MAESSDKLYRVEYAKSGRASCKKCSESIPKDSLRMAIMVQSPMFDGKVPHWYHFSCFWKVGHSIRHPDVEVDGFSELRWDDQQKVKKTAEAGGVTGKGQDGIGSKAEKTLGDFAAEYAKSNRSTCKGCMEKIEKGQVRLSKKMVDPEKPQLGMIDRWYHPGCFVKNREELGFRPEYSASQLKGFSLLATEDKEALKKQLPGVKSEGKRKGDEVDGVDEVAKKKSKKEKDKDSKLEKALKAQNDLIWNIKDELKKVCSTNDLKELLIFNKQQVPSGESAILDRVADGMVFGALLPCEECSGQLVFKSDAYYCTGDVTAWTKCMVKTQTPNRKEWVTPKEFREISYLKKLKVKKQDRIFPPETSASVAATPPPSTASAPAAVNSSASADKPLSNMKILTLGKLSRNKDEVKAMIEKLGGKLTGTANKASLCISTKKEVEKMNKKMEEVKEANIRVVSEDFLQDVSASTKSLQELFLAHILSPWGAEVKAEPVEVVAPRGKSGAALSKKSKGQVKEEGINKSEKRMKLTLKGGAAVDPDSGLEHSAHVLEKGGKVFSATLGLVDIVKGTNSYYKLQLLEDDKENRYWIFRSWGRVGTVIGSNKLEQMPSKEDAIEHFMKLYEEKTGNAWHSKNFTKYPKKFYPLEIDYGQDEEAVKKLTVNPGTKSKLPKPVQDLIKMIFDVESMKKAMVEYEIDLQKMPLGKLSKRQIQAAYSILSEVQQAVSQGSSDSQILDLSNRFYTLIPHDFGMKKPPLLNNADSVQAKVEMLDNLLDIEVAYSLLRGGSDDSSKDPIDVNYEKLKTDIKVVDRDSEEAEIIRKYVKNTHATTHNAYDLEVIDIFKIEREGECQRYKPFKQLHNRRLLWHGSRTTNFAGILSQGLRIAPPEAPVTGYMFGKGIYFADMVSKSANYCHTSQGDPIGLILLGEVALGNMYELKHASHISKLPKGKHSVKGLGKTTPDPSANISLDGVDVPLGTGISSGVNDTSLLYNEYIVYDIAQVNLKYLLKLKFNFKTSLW
- Experimental Details: Inhibition of recombinant human PARP1 expressed in Escherichia coli BL21(DE3) using sheared DNA as substrate measured after 1 hr in presence of NAD+
pIC50: −log10 of the molar value.
Readout Kind: pIC50

The cases that follow already have their pIC50 on record.
compound="CC(C)CCN1CCCC(NC(=O)c2nc3c(C(N)=O)cccc3[nH]2)C1 (centres undefined)" tgt="Poly [ADP-ribose] polymerase 1 (Homo sapiens, UniProt P09874)" reading=6.15
compound="NC(=O)c1cccc2[nH]c(C(=O)NC3CCCNC3)nc12 (centres undefined)" tgt="Poly [ADP-ribose] polymerase 1 (Homo sapiens, UniProt P09874)" reading=6.70
compound="NC(=O)c1cccc2[nH]c(C(=O)NC3CCCN(C4CCCCC4)C3)nc12 (centres undefined)" tgt="Poly [ADP-ribose] polymerase 1 (Homo sapiens, UniProt P09874)" reading=6.42
compound="CC(C)(C)OC(=O)N1CCC(NC(=O)c2nc3c(C(N)=O)cccc3[nH]2)C1 (centres undefined)" tgt="Poly [ADP-ribose] polymerase 1 (Homo sapiens, UniProt P09874)" reading=5.74
compound="CC(C)(C)OC(=O)N1CCC(N2CCCC(NC(=O)c3nc4c(C(N)=O)cccc4[nH]3)C2)CC1 (centres undefined)" tgt="Poly [ADP-ribose] polymerase 1 (Homo sapiens, UniProt P09874)" reading=6.09

P. NC(=O)c1cccc2[nH]c(C(=O)NC3CCCN(C4CCNCC4)C3)nc12 (centres undefined)
Q. NC(=O)c1cccc2[nH]c(C(=O)NC3CCNC3)nc12 (centres undefined)
Hey, which is lower on measured pIC50, P or Q ? Indicate your choice by writing its label.
P
(P: 6.10, Q: 6.46)

// data source = ChEMBL document CHEMBL4028811
